Test target: D(2) dopamine receptor (Homo sapiens) (UniProt P14416)
Sequence (P14416 whole entry, looked up): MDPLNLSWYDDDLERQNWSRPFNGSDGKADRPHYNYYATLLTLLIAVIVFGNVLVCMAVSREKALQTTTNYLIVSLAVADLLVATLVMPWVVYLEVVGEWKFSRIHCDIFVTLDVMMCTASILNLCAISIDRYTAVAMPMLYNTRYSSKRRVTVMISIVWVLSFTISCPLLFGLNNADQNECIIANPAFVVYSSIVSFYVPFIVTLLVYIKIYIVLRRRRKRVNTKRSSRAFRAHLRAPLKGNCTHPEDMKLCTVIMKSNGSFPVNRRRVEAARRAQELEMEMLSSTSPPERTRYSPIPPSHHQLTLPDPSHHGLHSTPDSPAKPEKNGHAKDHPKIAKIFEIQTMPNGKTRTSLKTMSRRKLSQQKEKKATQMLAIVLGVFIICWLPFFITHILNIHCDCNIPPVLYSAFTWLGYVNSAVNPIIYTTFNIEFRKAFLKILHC
Test name: HTS Assay for Allosteric Antagonists of the Human D2 Dopamine Receptor: Primary Screen for Antagonists; also: 0% is about no effect
Condition: HEK293 TREx D2 cells, calcium flux, dopamine EC80; at 10 µM
Screen size: about 340,000 compounds; about 6,900 (2%) were called active. Rule as the data show it: active = inhibition above about 30%; inactive = below that, where a call was filed. The full list was thinned out, with actives kept by preference.
Please answer using one outcome listed in active, inactive

So what was the verdict on CC(C)C(=O)NCc1cc(-c2ccc(Cl)cc2)no1 in this test?
active

Please let me know the test result on file for CC(=C/c1ccccc1)/C=N/NC(=O)c1cc(C)oc1C .
active

What did this assay record as the result for CC(C)CNC(=O)c1cc(-c2ccc(Br)cc2)on1 ?
inactive

Recorded test outcome, item CN(CC(=O)NCc1ccc2c(c1)OCO2)CC(=O)Nc1ccc(F)c(F)c1F
inactive

Recorded test outcome, item O=[N+]([O-])c1ccc(S(=O)(=O)Nc2cccc(-c3ccc(N4CCCC4)nn3)c2)cc1
inactive

// param item: Nc1c(C(=O)OCC(=O)Nc2ccc(OC(F)F)cc2)[nH]c(=O)[nH]c1=O ; yields the recorded call
inactive

###

Test target: D(2) dopamine receptor (Homo sapiens) (UniProt P14416)
Test name: HTS Assay for Allosteric Antagonists of the Human D2 Dopamine Receptor: Primary Screen for Antagonists; also: 0% is about no effect
Condition: HEK293 TREx D2 cells, calcium flux, dopamine EC80; at 10 µM
The campaign covered roughly 340,000 compounds. About 6,900 (2%) were called active. Rule as the data show it: active = inhibition above about 30%; inactive = below that, where a call was filed. The list comes from a sample in which actives are over-represented; it also holds close analogues and randomly drawn compounds.
Select the correct class. Options are yes (active), no (inactive) and nothing else.

Identify the outcome logged in this assay for the compound shown: COc1ccc(-c2cc(C(=O)NCCCN3CCCC3=O)c3ccccc3n2)cc1OC
no

Just curious, what result did O=C(Nc1ccc(-c2nnc(-c3ccccc3)o2)cc1)C1CCCO1 (stereo not given) get here?
no

Hello, I am checking results. What call was entered for CCCCN(C(=O)CSCC(=O)Nc1ccc(OC)cc1)c1c(N)n(CCC)c(=O)[nH]c1=O ?
no

Each compound tested received a call. Report the one for COCCn1c(C)cc(C(=O)COC(=O)CNC(=O)c2ccco2)c1C .
no

# lookup: test call for CCN(CC(=O)Nc1ccc(OC)cc1)C(=O)CSCc1ccc(C)cc1
no

Recorded test call requested for O=C(Nc1cccc(-c2nnc(-c3ccccc3)o2)c1)C1CCCO1 (stereo not given)
yes

Fill in: this test's call for O=C(OCC(=O)N1CCN(C(=O)c2ccco2)CC1)c1ccc(Cl)c(Cl)c1 is ___
no

Given O=C(Nc1nnc(CCc2ccccc2)s1)C1CCCO1 (stereo not given) , state the outcome it received in this test.
no

So what was the verdict on COc1ccccc1N1CC(C(=O)NCCN2C(=O)S/C(=C\c3cccnc3)C2=O)CC1=O (stereo not given) in this test?
no

Status in this test for COC(=O)c1ccc(C)c(NC(=O)C2CC(=O)N(C3CCCC(C)C3C)C2)c1 (stereo not given) ?
no

###

Test target: D(2) dopamine receptor (Homo sapiens) (UniProt P14416)
Test name: HTS Assay for Allosteric Antagonists of the Human D2 Dopamine Receptor: Primary Screen for Antagonists; also: 0% is about no effect
Condition: HEK293 TREx D2 cells, calcium flux, dopamine EC80; at 10 µM; hits give high values
The campaign covered roughly 340,000 compounds. About 6,900 (2%) were called active. The full list was thinned out, with actives kept by preference.
Could you please report measured inhibition for the items listed next?
Quick note: give the figure in %, leave out the unit.

# input compound: OCC[C@H]1C[C@@H](O)[C@H](O)[C@@]2(OCCc3ccccc32)O1 ; wanted: its inhibition
3.29

Consider the compound shown here: Cc1ccn2c(=O)nc(SCC(=O)NCc3ccc(F)cc3)nc2c1 What is its recorded inhibition?
17.8

Quick one: inhibition of Cc1ccc(NC(=O)Cn2c(C)csc2=O)cc1 ?
-14.9

Would you mind telling me what inhibition value was observed for CCOC(=O)N1CCN(Cc2nc3cc(NC(C)=O)ccc3n2C)CC1 ?
31.3

Need inhibition, item Cn1c(CCN2CCCCCC2)nc2cc(NC(=O)Nc3ccccc3)ccc21
0.502

I'd like to know its inhibition. The compound in question is CCCCCCn1c(CN2CCCC(C)C2)nc2c1c(=O)n(C)c(=O)n2C (stereo unspecified)
2.89

Look up inhibition for this compound: O=C(Nc1ccc2c(c1)OCO2)C1CC1(Cl)Cl (stereo unspecified)
4.68

Return reported inhibition; argument: Cc1cc(C(=O)N/N=C\C(Br)=C\c2ccccc2)c(C)o1
1.9

Reported inhibition, compound CN1CCN(Cc2nc3cc(NC(=O)COc4ccc([N+](=O)[O-])cc4)ccc3n2C)CC1 : ____
-8.44

Which inhibition value is on record for CCN(CC)c1ccc(NC(=O)CN2CCN(c3ccccn3)CC2)cc1 ?
5.78

Which measured inhibition value corresponds to Cc1cccc(NS(=O)(=O)c2cccc(C(=O)NNC(=O)c3ccccc3O)c2)c1 ?
-12.1

###

Test target: D(2) dopamine receptor (Homo sapiens)
Test name: HTS Assay for Allosteric Antagonists of the Human D2 Dopamine Receptor: Primary Screen for Antagonists; also: 0% is about no effect
Condition: HEK293 TREx D2 cells, calcium flux, dopamine EC80; at 10 µM
The campaign covered roughly 340,000 compounds. About 6,900 (2%) were called active. Rule as the data show it: active = inhibition above about 30%; inactive = below that, where a call was filed. The sample holds actives, similar compounds and a random draw of the others, so the mix is not that of the screen.
Write down one outcome, taken from yes (active), no (inactive)

Hey, what did the test say about COc1cccc(C(=O)OCC(=O)c2[nH]c(C)c(C(C)=O)c2C)c1 ?
no

Identify the outcome logged in this assay for the compound shown: O=C(COC(=O)c1ccccc1SCC(=O)N1CCCC1)Nc1ccccc1OC(F)F
no

Test call, this compound: CN(CC(=O)Nc1ccc(F)c(F)c1F)C(=O)Cn1cnc2c1c(=O)n(C)c(=O)n2C
no

For NS(=O)(=O)c1ccc(CNC(=O)c2cccc(Oc3ccccc3)c2)cc1 , which call appears in the assay record?
no

Can you look up the reported call for O=C(COc1ccc(Br)cc1F)NC1CCN(Cc2ccccc2)CC1 for me?
yes

What is the recorded call for this compound in the test? CN1CCN(CCCCOc2cccc3ccccc23)CC1
no

Per the assay record, what outcome was assigned to CC(C(=O)N(C)CC(=O)Nc1ccccc1C(F)(F)F)N1C(=O)c2ccccc2C1=O (stereo not drawn) ?
no

Outcome logged for O=C(COc1ccccc1F)NC1CC1 in this assay:
no

Called result for Cc1n[nH]c(=O)c2c(NC(=O)CSc3ccccc3F)oc(C)c12
no

Dear all, I need the recorded test outcome for CCOC(=O)N1CCN(C(=O)COC(=O)c2cccc(S(C)(=O)=O)c2)CC1 , thank you.
no

Fill in: this test's call for S=C(Nc1ccc(Br)cc1)NC1CCN(Cc2ccccc2)CC1 is ___
yes

How did this test come out for CC1CCCN(CCOCCOc2ccccc2-c2ccccc2)C1 (stereo not drawn) ?
yes

Kindly provide the recorded test outcome for the following compound: O=C(CN1C(=O)COc2ccccc21)NCCN1CCc2ccccc2C1
no

Outcome logged for Cn1c(C(=O)NCCN2CCc3ccccc3C2)cc2c(=O)[nH]c3ccccc3c21 in this assay:
yes

Hello, I am checking results. What call was entered for S=C(Nc1ccc(Br)cc1Cl)NC1CCN(Cc2ccccc2)CC1 ?
yes

Recorded test outcome, item Cc1ccc(NC(=O)c2cccc(S(=O)(=O)N3CCCc4ccccc43)c2)nc1
no

So what was the verdict on S=C(NCc1ccco1)NCc1ccccc1Cl in this test?
no

Assay outcome for S=C(NCCCc1ccccc1)Nc1ccc(Br)cc1 : what was it?
no

Kindly provide the recorded test outcome for the following compound: CC1CCCN(CC(O)COCc2ccccc2)C1 (stereo not drawn)
no

Would you mind telling me which call this test gave COc1ccccc1N1CCN(C(=O)C2Cc3ccccc3CN2C(=O)c2ccco2)CC1 (stereo not drawn) ?
no

Fill in: this test's call for O=C(CNS(=O)(=O)c1ccc2ccccc2c1)Nc1ccc(F)c(F)c1F is ___
no

Recorded call for COc1ccccc1C(=O)NCC(=O)OCC(=O)Nc1nnc(-c2ccccc2)o1 ?
no

Answer briefly: the call reported for CC1CN(C2CCN(C(=O)COc3ccccc3)CC2)CC(C)O1 (stereo not drawn) in this assay.
no

###

Test target: D(2) dopamine receptor (Homo sapiens) (UniProt P14416)
Test name: HTS Assay for Allosteric Antagonists of the Human D2 Dopamine Receptor: Primary Screen for Antagonists; also: 0% is about no effect
Condition: HEK293 TREx D2 cells, calcium flux, dopamine EC80; at 10 µM; hits give high values
The whole screen tested about 340,000 compounds, of which about 6,900 (2%) were called active. The list comes from a sample in which actives are over-represented; it also holds close analogues and randomly drawn compounds.
Consider the following compounds; for each one, report its inhibition.
Report the value in % with no unit label.

Request - read-out inhibition | tested on D(2) dopamine receptor (Homo sapiens) (UniProt P14416) | compound COc1cccc(N2CCN(CC(=O)Nc3ccnn3C3CCCC3)CC2)c1
19.5

Lab note: need inhibition for COc1ccccc1-c1sc2ccccc2c1-c1ccc(Br)nc1 on D(2) dopamine receptor (Homo sapiens) (UniProt P14416), anyone have it?
7.5

Requested read-out inhibition, target or system D(2) dopamine receptor (Homo sapiens) (UniProt P14416), entry O=C1C2CCCN2C(=O)N1CCCCN1CCN(c2cccc(C(F)(F)F)c2)CC1 (stereo unspecified)
106

Give the reported inhibition for CC(C)(CNC(=O)CNC(=O)C1CCCCC1)N1CCOCC1 (system: D(2) dopamine receptor (Homo sapiens) (UniProt P14416)).
-45.4

What is its inhibition for D(2) dopamine receptor (Homo sapiens) (UniProt P14416)? Entry: Cc1ccc(S(=O)(=O)N(C)C)cc1NC(=O)C(C)OC(=O)c1ccc2ccccc2n1 (stereo unspecified)
5.2

# returns recorded inhibition (system: D(2) dopamine receptor (Homo sapiens) (UniProt P14416)) for Fc1ccc(N2CCN(Cc3cnc(Oc4ccc(Br)cc4)s3)CC2)cc1
14.3
